# target.of.assay: mouse melanocortin-4 receptor (mouse) (UniProt P56450)
# Sequence (P56450 whole entry): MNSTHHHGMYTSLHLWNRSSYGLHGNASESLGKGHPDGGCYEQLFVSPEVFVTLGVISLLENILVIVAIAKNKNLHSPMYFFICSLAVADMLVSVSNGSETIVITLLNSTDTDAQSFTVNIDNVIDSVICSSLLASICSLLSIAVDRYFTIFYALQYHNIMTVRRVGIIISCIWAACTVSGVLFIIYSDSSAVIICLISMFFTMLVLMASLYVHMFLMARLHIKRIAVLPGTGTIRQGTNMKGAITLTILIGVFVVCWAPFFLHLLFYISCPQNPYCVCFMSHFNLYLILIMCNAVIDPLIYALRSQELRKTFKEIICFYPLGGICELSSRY
Square brackets hold non-standard residues; d marks the D form. dPhe(4-I) = N[C@H](Cc1ccc(I)cc1)C(=O)O
binders and their reported pA2, antagonism of NDP-MSH at mMC4R, Schild analysis, cAMP AlphaScreen

In: Give the measured pA2, antagonism of NDP-MSH at mMC4R, Schild analysis, cAMP AlphaScreen for Ac-[dPhe(4-I)]R[dPhe(4-I)][dK]-NH2 (SMILES CC(=O)N[C@H](Cc1ccc(I)cc1)C(=O)N[C@@H](CCCNC(=N)N)C(=O)N[C@H](Cc1ccc(I)cc1)C(=O)N[C@H](CCCCN)C(N)=O) [Ac-DPhe(pI)-Arg-DPhe(pI)-DLys-NH2]
Out: 8.5

In: Give the measured pA2, antagonism of NDP-MSH at mMC4R, Schild analysis, cAMP AlphaScreen for Ac-[dPhe(4-I)]R[dPhe(4-I)]R-NH2 (SMILES CC(=O)N[C@H](Cc1ccc(I)cc1)C(=O)N[C@@H](CCCNC(=N)N)C(=O)N[C@H](Cc1ccc(I)cc1)C(=O)N[C@@H](CCCNC(=N)N)C(N)=O) [Ac-DPhe(pI)-Arg-DPhe(pI)-Arg-NH2]
Out: 8.5

In: Give the measured pA2, antagonism of NDP-MSH at mMC4R, Schild analysis, cAMP AlphaScreen for Ac-[dPhe(4-I)]RWR-NH2 (SMILES CC(=O)N[C@H](Cc1ccc(I)cc1)C(=O)N[C@@H](CCCNC(=N)N)C(=O)N[C@@H](Cc1c[nH]c2ccccc12)C(=O)N[C@@H](CCCNC(=N)N)C(N)=O) [Ac-DPhe(pI)-Arg-Trp-Arg-NH2]
Out: 8.7

// next entry
In: Give the measured pA2, antagonism of NDP-MSH at mMC4R, Schild analysis, cAMP AlphaScreen for Ac-[dPhe(4-I)]RW[dK]-NH2 (SMILES CC(=O)N[C@H](Cc1ccc(I)cc1)C(=O)N[C@@H](CCCNC(=N)N)C(=O)N[C@@H](Cc1c[nH]c2ccccc12)C(=O)N[C@H](CCCCN)C(N)=O) [Ac-DPhe(pI)-Arg-Trp-DLys-NH2]
Out: 7.6
